Tested on: MDR1 (human)
test_details: Apparent permeability of the compound across pig LLC-PK1 cells expressing human MDR1
Type: ADME, cell-based, Sus scrofa
Answer False if Papp is under 10 ×10⁻⁶ cm/s, and True if it is 10 ×10⁻⁶ cm/s or more.

1) NC1=N[C@@]2(CO1)c1cc(-c3cc(F)cc(Cl)c3)ccc1O[C@@H]1COCC[C@H]12 : True
2) NC1=N[C@@]2(CO1)c1cc(-c3cncc(F)c3)ccc1O[C@@H]1COCC[C@H]12 : True
3) NC1=N[C@@]2(CO1)c1cc(-c3cncc(Cl)c3)ccc1O[C@H]1COCC[C@@H]12 : False
4) N#Cc1cccc(-c2ccc3c(c2)[C@@]2(COC(N)=N2)[C@@H]2CCOC[C@H]2O3)c1 : True

# ---- query molecule ----
Given the entry NC1=N[C@@]2(CO1)c1cc(-c3cncc(Cl)c3)ccc1O[C@@H]1COCC[C@H]12 , answer whether its Papp meets or surpasses 10 ×10⁻⁶ cm/s.
True
